The measurements presented in this section are drawn from patent US11685732B2.

# target desc: KAT-8 (Homo sapiens (Human))
# experiment notes: KAT-8 biochemical inhibition assay (SAMDI mass spectrometry)
property name: IC50

Below, 5 compounds whose answers are already recorded.
compound: Cn1cnc(-c2cc(Cl)c(F)c(C(=O)NNS(=O)(=O)CC3CN(C(=O)N4CCC4)C3)c2)c1 [Compound I-169]
target desc: KAT-8 (Homo sapiens (Human))
property name: IC50
measured: 10 to 50 µM
--
compound: Cn1cnc(-c2cc(Cl)c(F)c(C(=O)NNS(=O)(=O)c3cnn(CCOCc4ccccc4)c3)c2)c1 [Compound I-361]
target desc: KAT-8 (Homo sapiens (Human))
property name: IC50
measured: 10 to 50 µM
--
compound: CCNC(=O)N[C@@H]1CCC[C@@H](CS(=O)(=O)NNC(=O)c2cc(-c3cn(C)cn3)cc(Cl)c2F)C1 [Compound I-355]
target desc: KAT-8 (Homo sapiens (Human))
property name: IC50
measured: 10 to 50 µM
--
compound: Cn1cnc(-c2cc(Cl)c(F)c(C(=O)NNS(=O)(=O)C3CCCC3)c2)c1 [Compound I-15]
target desc: KAT-8 (Homo sapiens (Human))
property name: IC50
measured: > 100 µM
--
compound: COCCn1cnc(-c2cc(C)c(F)c(C(=O)NNS(=O)(=O)CC3CCCN(C(=O)OC(C)(C)C)C3)c2)c1 (stereo not shown) [Compound I-135]
target desc: KAT-8 (Homo sapiens (Human))
property name: IC50
measured: > 100 µM

Report IC50 for every entry below.
1. Cn1cnc(-c2cc(Cl)c(F)c(C(=O)NNS(=O)(=O)C[C@H]3C[C@H](N)C3)c2)c1 [Compound I-123]
2. Cn1cnc(-c2cc(Cl)c(F)c(C(=O)NNS(=O)(=O)C[C@@H]3CCCO3)c2)c1 [Compound I-389]

10 to 50 µM
> 100 µM

----------
# target desc: KAT-8 (Homo sapiens (Human), UniProt Q9H7Z6)
# Sequence (Q9H7Z6 other isoform, or with tags, fused parts or gaps): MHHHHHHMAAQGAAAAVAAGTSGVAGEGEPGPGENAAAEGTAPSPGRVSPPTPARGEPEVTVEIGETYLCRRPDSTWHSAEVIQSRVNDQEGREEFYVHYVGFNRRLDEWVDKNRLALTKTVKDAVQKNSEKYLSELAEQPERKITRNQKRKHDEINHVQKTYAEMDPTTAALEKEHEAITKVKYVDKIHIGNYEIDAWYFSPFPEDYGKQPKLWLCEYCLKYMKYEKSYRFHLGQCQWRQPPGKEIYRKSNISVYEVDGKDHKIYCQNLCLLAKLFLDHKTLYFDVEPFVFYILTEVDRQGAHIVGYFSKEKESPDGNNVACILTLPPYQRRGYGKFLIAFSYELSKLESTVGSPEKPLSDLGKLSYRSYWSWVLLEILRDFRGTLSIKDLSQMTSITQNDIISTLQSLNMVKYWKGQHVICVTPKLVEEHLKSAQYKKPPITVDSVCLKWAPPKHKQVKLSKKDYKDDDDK
# experiment notes: KAT-8 biochemical inhibition assay (SAMDI mass spectrometry)
pIC50: −log10 of the molar value.
What pIC50 was measured for each of the following?

compound: Cn1cnc(-c2cc(Cl)c(F)c(C(=O)NNS(=O)(=O)C3COC3)c2)c1
pIC50: < 4.00

Report pIC50 for every entry below.
1. CCC(=O)N1CCC(CS(=O)(=O)NNC(=O)c2cc(-c3cn(C)cn3)cc(Cl)c2F)C1 (stereo not drawn)
2. Cn1cnc(-c2cc(Cl)c(F)c(C(=O)NNS(=O)(=O)CC3CCN(S(C)(=O)=O)C3)c2)c1 (stereo not drawn)
3. Cn1cnc(-c2cc(Cl)c(F)c(C(=O)NNS(=O)(=O)c3cccc(NCc4ccccc4)n3)c2)c1
4. CCn1cc(-c2cc(C)c(F)c(C(=O)NNS(=O)(=O)C3CCCCC3)c2)cn1

1: 4.30 to 5.00; 2: 4.30 to 5.00; 3: < 4.00; 4: < 4.00

Report pIC50 for every entry below.
1. CCS(=O)(=O)N1CC(CS(=O)(=O)NNC(=O)c2cc(-c3cn(C)cn3)cc(Cl)c2F)C1
2. Cc1cc(-c2cn(C)cn2)cc(C(=O)NNS(=O)(=O)C2CCOCC2)c1F
3. CN1CCN([C@H]2CC[C@@H](CS(=O)(=O)NNC(=O)c3cc(-c4cn(C)cn4)cc(Cl)c3F)CC2)C1=O
4. CCC(=O)NC1CCCC(CS(=O)(=O)NNC(=O)c2cc(-c3cn(C)cn3)cc(Cl)c2F)C1 (stereo not drawn)
5. CCNC(=O)N[C@@H]1CCC[C@H](CS(=O)(=O)NNC(=O)c2cc(-c3cn(C)cn3)cc(Cl)c2F)C1
6. CC1CCNCC1CS(=O)(=O)NNC(=O)c1cc(-c2cn(C)cn2)cc(Cl)c1F (stereo not drawn)
7. Cn1cnc(-c2cc(Cl)c(F)c(C(=O)NNS(=O)(=O)c3ccccc3Cl)c2)c1
8. O=C(NNS(=O)(=O)CC1CCOCC1)c1cc(-n2ccnn2)cc(Cl)c1F

1. 4.30 to 5.00
2. < 4.00
3. 4.30 to 5.00
4. 4.30 to 5.00
5. 4.30 to 5.00
6. 4.30 to 5.00
7. 4.30 to 5.00
8. 4.30 to 5.00

Report pIC50 for every entry below.
1. Cn1cnc(-c2cc(Cl)c(F)c(C(=O)NNS(=O)(=O)c3nccn3C)c2)c1
2. CCCS(=O)(=O)N1CC(CS(=O)(=O)NNC(=O)c2cc(-c3cn(C)cn3)cc(Cl)c2F)C1

1. 4.30 to 5.00
2. 4.30 to 5.00

----------
# target desc: KAT-6A (Homo sapiens (Human))
# Sequence (Q92794 other isoform, or with tags, fused parts or gaps): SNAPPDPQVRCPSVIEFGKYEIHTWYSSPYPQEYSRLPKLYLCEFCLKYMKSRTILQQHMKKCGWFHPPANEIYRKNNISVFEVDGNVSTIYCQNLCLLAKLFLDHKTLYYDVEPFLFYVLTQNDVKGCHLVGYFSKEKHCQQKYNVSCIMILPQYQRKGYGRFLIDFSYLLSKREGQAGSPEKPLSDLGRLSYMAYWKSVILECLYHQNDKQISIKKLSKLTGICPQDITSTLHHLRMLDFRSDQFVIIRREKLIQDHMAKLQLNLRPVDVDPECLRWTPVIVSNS
# experiment notes: KAT-6A biochemical inhibition assay (SAMDI mass spectrometry)
What IC50 was measured for each of the following?

Below, 4 molecules whose answers are already recorded.
molecule: Cn1cnc(-c2cc(Cl)c(F)c(C(=O)NNS(=O)(=O)CC3CCCN(C(=O)NCCO)C3)c2)c1 (stereo not shown)
property name: IC50
measured: < 10 µM
//
molecule: CCNC(=O)NC1CCC(CS(=O)(=O)NNC(=O)c2cc(-c3cn(C)cn3)cc(Cl)c2F)C1 (stereo not shown)
property name: IC50
measured: < 10 µM
//
molecule: Cn1cnc(-c2cc(Cl)c(F)c(C(=O)NNS(=O)(=O)CC3CN(C(=O)OC(C)(C)C)CCN3C(=O)OC(C)(C)C)c2)c1 (stereo not shown)
property name: IC50
measured: > 100 µM
//
molecule: COCCn1cc(-c2cc(C)c(F)c(C(=O)NNS(=O)(=O)C3CCCCC3)c2)cn1
property name: IC50
measured: > 100 µM

Report IC50 for every entry below.
1. COCCC(=O)N1CCC(CS(=O)(=O)NNC(=O)c2cc(-c3cn(C)cn3)cc(Cl)c2F)C1 (stereo not shown)
2. Cc1cc(-c2cncn2C)cc(C(=O)NNS(=O)(=O)C2CCCCC2)c1F
3. Cn1cnc(-c2cc(Cl)c(F)c(C(=O)NNS(=O)(=O)CC3CC4CCC3C4)c2)c1 (stereo not shown)

["10 to 50 µM", "> 100 µM", "< 10 µM"]

----------
# target desc: KAT-6A (Homo sapiens (Human))
# experiment notes: KAT-6A biochemical inhibition assay (SAMDI mass spectrometry)
# applied conditions: Table 6, comparative compounds
property name: IC50

Below, 2 compounds whose answers are already recorded.
compound: O=C(NNS(=O)(=O)CC1CCCNC1)c1cc(-c2ccccc2)cc(Cl)c1F (stereo not shown) [A, reference compound]
IC50: 10 to 50 µM
//
compound: Cc1cc(-c2ccccc2)cc(C(=O)NNS(=O)(=O)CC2CCCNC2)c1F (stereo not shown) [D, reference compound]
IC50: > 100 µM

Report IC50 for every entry below.
1. Cc1cc(-c2ccccc2)cc(C(=O)NNS(=O)(=O)CC2CCCN(C(=O)OC(C)(C)C)C2)c1F (single isomer, unassigned) [C, reference compound]
2. Cc1cc(-c2ccccc2)cc(C(=O)NNS(=O)(=O)CC2CCCN(C(=O)OC(C)(C)C)C2)c1F (single isomer, unassigned) [B, reference compound]

1. ≤ 10 µM
2. ≤ 10 µM

----------
# Tested on: OCIAML2 cells
# experiment notes: Long term proliferation assay (14-day), OCIAML2
# Type: cell-based
# applied conditions: Homo sapiens, OCI-AML2, 336 h; OCIAML2, AML; 14-day timepoint; absolute IC50
# Description: Long term proliferation assay. A panel of multiple myeloma (MM) and acute myeloid leukemia (AML) cell lines were tested in 14-day proliferation assays. […] Viable cell number was determined at 0, 4, 7, 11, and 14 days using Calcein staining and using an Accumen instrument to enumerate the number of cells. […] Total cell number is expressed as split-adjusted viable cells per well. […]
property name: IC50

Suppose we examine the compound COCc1cc(Cl)c(F)c(C(=O)NNS(=O)(=O)c2cccc(O)c2)c1 ; what IC50 value has been reported?
> 10 µM

----------
What IC50 was measured for each of the following?
# target desc: KAT-7 (Homo sapiens (Human), UniProt O95251)
# Sequence (O95251 other isoform, or with tags, fused parts or gaps): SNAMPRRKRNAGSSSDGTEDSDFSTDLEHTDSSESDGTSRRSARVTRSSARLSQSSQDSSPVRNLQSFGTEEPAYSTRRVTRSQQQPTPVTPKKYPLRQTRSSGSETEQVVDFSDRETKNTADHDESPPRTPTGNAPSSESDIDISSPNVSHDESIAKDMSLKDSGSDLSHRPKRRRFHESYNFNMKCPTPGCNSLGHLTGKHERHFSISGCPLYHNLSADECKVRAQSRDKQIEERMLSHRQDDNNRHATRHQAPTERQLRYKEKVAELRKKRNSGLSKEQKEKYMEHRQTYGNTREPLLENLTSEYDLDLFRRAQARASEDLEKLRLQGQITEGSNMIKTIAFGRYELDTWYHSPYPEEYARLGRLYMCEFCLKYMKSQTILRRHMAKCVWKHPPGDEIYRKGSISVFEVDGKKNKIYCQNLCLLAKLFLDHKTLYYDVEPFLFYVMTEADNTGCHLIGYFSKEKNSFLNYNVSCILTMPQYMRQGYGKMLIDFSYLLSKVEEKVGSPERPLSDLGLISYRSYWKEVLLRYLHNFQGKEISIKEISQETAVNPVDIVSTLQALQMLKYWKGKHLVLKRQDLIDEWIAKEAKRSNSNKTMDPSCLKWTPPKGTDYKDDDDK
# experiment notes: KAT-7 biochemical inhibition assay (SAMDI mass spectrometry)
# applied conditions: Table 6, comparative compounds

compound: Cc1cc(-c2ccccc2)cc(C(=O)NNS(=O)(=O)CC2CCCNC2)c1F (stereo not shown) [D, reference compound]
target desc: KAT-7 (Homo sapiens (Human), UniProt O95251)
IC50: > 100 µM

compound: Cc1cc(-c2ccccc2)cc(C(=O)NNS(=O)(=O)CC2CCCN(C(=O)OC(C)(C)C)C2)c1F (single isomer, unassigned) [B, reference compound]
target desc: KAT-7 (Homo sapiens (Human), UniProt O95251)
IC50: ≤ 10 µM

compound: O=C(NNS(=O)(=O)CC1CCCNC1)c1cc(-c2ccccc2)cc(Cl)c1F (stereo not shown) [A, reference compound]
target desc: KAT-7 (Homo sapiens (Human), UniProt O95251)
IC50: 50 to 100 µM

Suppose we examine the compound Cc1cc(-c2ccccc2)cc(C(=O)NNS(=O)(=O)CC2CCCN(C(=O)OC(C)(C)C)C2)c1F (single isomer, unassigned) [C, reference compound] ; what IC50 value has been reported?
10 to 50 µM
